Test: Drug recovery in ICR mouse feces at 1.6 mg/ml, po after 24 hrs
Conditions: faeces
recorded.metric: dose excreted at 24 h (%)
Write down the numeric answer in % and omit the unit.

Inquiry: Give its dose excreted at 24 h value. Item: CC1=C(C(=O)O)N2C(=O)[C@@H](NC(=O)[C@H](N)c3ccccc3)[C@H]2SC1 [CEPHALEXIN ANHYDROUS]
Reply text: 99

---

Assay: Drug recovery in Purdue-Wistar rat feces at 1.6 mg/ml, po after 24 hrs
Conditions: faeces
recorded.metric: dose excreted at 24 h (%)
Give the number; % is assumed, so skip it.

Inquiry: Look up dose excreted at 24 h for this molecule: CC1=C(C(=O)O)N2C(=O)[C@@H](NC(=O)[C@H](N)c3ccccc3)[C@H]2SC1 [CEPHALEXIN ANHYDROUS]
Reply text: 99
